OBSERVATION_TYPE: pCF
The answer should be written as a number, with no unit following it.

{"COMPOUND": "CC[C@H]1OC(=O)C[C@@H](O)[C@H](C)[C@@H](O[C@@H]2O[C@H](C)C[C@H](N(C)C)[C@H]2O)[C@@H](CC=O)C[C@@H](C)C(=O)/C=C/[C@]2(C)O[C@H]2[C@@H]1C", "OBSERVATION_TYPE": "pCF", "OBSERVED_RESULT": 0.017}
{"COMPOUND": "CC[C@H]1OC(=O)C[C@@H](O)[C@H](C)[C@@H](O[C@@H]2O[C@H](C)[C@@H](O[C@H]3C[C@@](C)(O)[C@@H](O)[C@H](C)O3)[C@H](N(C)C)[C@H]2O)[C@@H](CC=O)C[C@@H](C)C(=O)/C=C/C(C)=C/[C@@H]1CO[C@@H]1O[C@H](C)[C@@H](O)[C@@H](OC)[C@H]1OC", "OBSERVATION_TYPE": "pCF", "OBSERVED_RESULT": 0.167}

pCF recorded for this compound, CC[C@H]1OC(=O)[C@H](C)[C@@H](O[C@H]2C[C@@](C)(OC)[C@@H](O)[C@H](C)O2)[C@H](C)[C@@H](O[C@@H]2O[C@H](C)C[C@H](N(C)C)[C@H]2O)[C@](C)(O)C[C@@H](C)CN(C)[C@H](C)[C@@H](O)[C@]1(C)O , is 1.36

pCF recorded for this compound, CC[C@H]1OC(=O)C[C@@H](O)[C@H](C)[C@@H](O[C@@H]2O[C@H](C)[C@@H](O)[C@H](N(C)C)[C@H]2O)[C@@H](CCN2C[C@H](C)C[C@H](C)C2)C[C@@H](C)C(=O)/C=C/C(C)=C/[C@@H]1CO[C@@H]1O[C@H](C)[C@@H](O)[C@@H](OC)[C@H]1OC , is 0.847

###

Recorded Log K, one value per entry.
The answer should be written as a number, with no unit following it.

Guide cases for Log K, answers given:
{"COMPOUND": "CC[C@H]1OC(=O)C[C@@H](O)[C@H](C)[C@@H](O[C@@H]2O[C@H](C)[C@@H](O[C@H]3C[C@@](C)(O)[C@@H](O)[C@H](C)O3)[C@H](N(C)C)[C@H]2O)[C@@H](CC=O)C[C@@H](C)C(=O)/C=C/C(C)=C/[C@@H]1CO[C@@H]1O[C@H](C)[C@@H](O)[C@@H](OC)[C@H]1OC", "OBSERVATION_TYPE": "Log K", "OBSERVED_RESULT": 0.68}
{"COMPOUND": "CC[C@H]1OC(=O)[C@H](C)[C@@H](O[C@H]2C[C@@](C)(OC)[C@@H](O)[C@H](C)O2)[C@H](C)[C@@H](O[C@@H]2O[C@H](C)C[C@H](N(C)C)[C@H]2O)[C@](C)(O)C[C@@H](C)C(=O)[C@H](C)[C@@H](O)[C@]1(C)O", "OBSERVATION_TYPE": "Log K", "OBSERVED_RESULT": 0.35}
{"COMPOUND": "CO[C@H]1C[C@H](O[C@H]2[C@H](C)[C@@H](O[C@@H]3O[C@H](C)C[C@H](N(C)C)[C@H]3O)[C@@H](C)CC3(CO3)C(=O)[C@H](C)[C@@H](O)[C@@H](C)[C@@H](C)OC(=O)[C@@H]2C)O[C@@H](C)[C@@H]1O (single isomer, unassigned)", "OBSERVATION_TYPE": "Log K", "OBSERVED_RESULT": 0.01}

Kindly consider the entry below.
Log K recorded for this compound, CC[C@H]1OC(=O)C[C@@H](O)[C@H](C)[C@@H](O[C@@H]2O[C@H](C)[C@@H](O)[C@@H](N(C)C)[C@H]2O)[C@@H](CC=O)C[C@@H](C)C(=O)/C=C/C(C)=C/[C@@H]1CO[C@@H]1O[C@H](C)[C@@H](O)[C@@H](OC)[C@H]1OC , is 0.17
